// data source = patent EP0368576B1

- Test protocol: Acute oral toxicity test
- Experimental context: mouse, in vivo, ICR male mice (5 weeks old), read-out: Acute oral toxicity LD₅₀
- Protocol: Tests of the acute oral toxicity and the acute dermal toxicity of the encapsulated insecticide produced in Example 2 and the acute toxicity thereof to fish were carried out as follows. A group of 5 ICR male mice (5 weeks old) and a group of 5 Wister male rats (8 weeks old) were used for the acute oral toxicity test and the acute dermal toxicity test, respectively. […]
Assay metric: LD50 (mg/kg)
Answers are plain numbers, in mg/kg.

Qu. LD50 lookup needed for CCOP(=S)(OCC)Oc1nc(Cl)c(Cl)cc1Cl , thanks.
Ans. 178
